Biological target: 1A2 (Homo sapiens (Human))
Sequence (P05177 whole entry): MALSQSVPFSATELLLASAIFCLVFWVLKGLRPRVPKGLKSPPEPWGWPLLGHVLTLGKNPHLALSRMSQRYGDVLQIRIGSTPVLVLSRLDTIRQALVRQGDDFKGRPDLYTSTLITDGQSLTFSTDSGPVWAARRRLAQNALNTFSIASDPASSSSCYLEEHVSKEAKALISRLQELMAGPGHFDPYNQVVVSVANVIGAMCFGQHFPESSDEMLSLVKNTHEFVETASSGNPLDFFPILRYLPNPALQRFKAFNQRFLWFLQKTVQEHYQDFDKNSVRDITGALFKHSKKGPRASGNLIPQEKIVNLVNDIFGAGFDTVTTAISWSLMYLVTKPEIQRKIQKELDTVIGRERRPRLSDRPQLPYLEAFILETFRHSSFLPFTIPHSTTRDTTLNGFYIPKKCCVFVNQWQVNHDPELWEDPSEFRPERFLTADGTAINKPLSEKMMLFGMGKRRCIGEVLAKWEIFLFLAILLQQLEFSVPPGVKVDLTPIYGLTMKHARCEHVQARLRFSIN
Items are presented alongside their recorded IC50.

INSERT INTO results (compound, value_reported) VALUES
  ('c1cnc2c(Nc3ccc4c(OCC5COCCO5)nccc4c3)n[nH]c2c1 (stereo not drawn) [Compound 73]', '16.4 µM'),
  ('c1cnc2c(Nc3ccc4c(O[C@@H]5CCCOC5)nccc4c3)n[nH]c2c1 [Compound 62]', '6.32 µM'),
  ('COCCOc1nccc2cc(Nc3n[nH]c4ncccc34)ccc12 [Compound 74]', '> 30 µM'),
  ('c1cnc2c(Nc3ccc4c(OCC5CCCOC5)nccc4c3)n[nH]c2c1 (stereo not drawn) [Compound 72]', '12.9 µM'),
  ('c1cc2cc(Nc3n[nH]c4nccnc34)ccc2c(OCC2COCCO2)n1 (stereo not drawn) [Compound 86]', '> 30 µM'),
  ('COCCOc1nccc2cc(Nc3n[nH]c4cccnc34)ccc12 [Compound 67]', '4.76 µM'),
  ('COCCOc1nccc2cc(Nc3n[nH]c4nccnc34)ccc12 [Compound 81]', '0.79 µM'),
  ('c1cnc2c(Nc3ccc4c(O[C@H]5CCOC5)nccc4c3)n[nH]c2c1 [Compound 64]', '7.99 µM');

Asked: I have this compound here, c1cc2cc(Nc3n[nH]c4nccnc34)ccc2c(O[C@@H]2CCOC2)n1 [Compound 58] , and I need its recorded IC50.
Given back: > 30 µM

Asked: Please do the same for C[C@H]1C[C@H](Oc2nccc3cc(Nc4n[nH]c5ncccc45)ccc23)CO1 [Compound 88] as well.
Given back: 17 µM

Asked: Request: c1cc2cc(Nc3n[nH]c4nccnc34)ccc2c(OCC2CCOC2)n1 (stereo not drawn) [Compound 85]
Given back: > 30 µM

Asked: Likewise for CO[C@H](C)COc1nccc2cc(Nc3n[nH]c4cccnc34)ccc12 [Compound 70] ?
Given back: 4.96 µM

---

Experiment: Rat plasma fraction unbound
Type: in vitro ADME
Conditions: read-out: Rat Fu Plasma
Field 'label' (enum: t / f). Set to t when fraction unbound is strictly under 0.04; else f.

Below are worked cases with known answers.
INSERT INTO measurements (compound, label_class) VALUES
  ('c1cc2cc(Nc3n[nH]c4nccnc34)ccc2c(O[C@@H]2CCOC2)n1', 'f'),
  ('c1cnc2c(Nc3ccc4c(O[C@@H]5CCOC5)nccc4c3)n[nH]c2c1', 't'),
  ('c1cnc2c(Nc3ccc4c(OC5CCOCC5)nccc4c3)n[nH]c2c1', 't'),
  ('C[C@H]1C[C@H](Oc2nccc3cc(Nc4n[nH]c5ncccc45)ccc23)CO1', 't');

Asked: Item c1cnc2c(Nc3ccc4c(OCC5CCOCC5)nccc4c3)n[nH]c2c1 : fraction unbound beneath 0.04, strictly?
Given back: t

Asked: Then this compound: c1cc2cc(Nc3n[nH]c4nccnc34)ccc2c(OCC2CCCCO2)n1 (centres unmarked)
Given back: t

Asked: Now try c1cnc2c(Nc3ccc4c(O[C@H]5CCOC5)nccc4c3)n[nH]c2c1 .
Given back: f

---

fraction unbound: recorded values
Test: Rat brain fraction unbound
Assay type: in vitro ADME
Conditions: read-out: Rat Fu Brain
Answer with a number only.

INSERT INTO results (molecule, measured_metric, value_reported) VALUES
  ('c1cc2cc(Nc3n[nH]c4nccnc34)ccc2c(OCC2CCOCC2)n1', 'fraction unbound', 0.004),
  ('c1cnc2c(Nc3ccc4c(OCC5CCOC5)nccc4c3)n[nH]c2c1 (stereo not drawn)', 'fraction unbound', 0.003),
  ('c1cnc2[nH]nc(Nc3ccc4c(OCC5CCOCC5)nccc4c3)c2c1', 'fraction unbound', 0.002),
  ('COCCOc1nccc2cc(Nc3n[nH]c4nccnc34)ccc12', 'fraction unbound', 0.015),
  ('c1cc2cc(Nc3n[nH]c4nccnc34)ccc2c(OCC2COCCO2)n1 (stereo not drawn)', 'fraction unbound', 0.018),
  ('CCOCCOc1nccc2cc(Nc3n[nH]c4ncccc34)ccc12', 'fraction unbound', 0.004);

Asked: What value of fraction unbound has been reported for the following molecule? CO[C@H](C)COc1nccc2cc(Nc3n[nH]c4ncccc34)ccc12
Given back: 0.004

Asked: What would you report for c1cnc2c(Nc3ccc4c(O[C@H]5CCCOC5)nccc4c3)n[nH]c2c1 ?
Given back: 0.005

Asked: Next molecule up: COCCOc1nccc2cc(Nc3n[nH]c4cccnc34)ccc12
Given back: 0.007

Asked: Would you kindly repeat that for c1cnc2c(Nc3ccc4c(O[C@@H]5CCOC5)nccc4c3)n[nH]c2c1 ?
Given back: 0.005

---

Assay: Human plasma fraction unbound
Format: in vitro ADME
Conditions: read-out: Human Fu Plasma
// returns not fulfilled unless fraction unbound is strictly below 0.02, in which case fulfilled

Please review the following examples before continuing.
INSERT INTO measurements (compound, label_class) VALUES
  ('c1cnc2[nH]nc(Nc3ccc4c(OCC5CCCCO5)nccc4c3)c2c1 (stereo not drawn)', 'fulfilled'),
  ('c1cnc2c(Nc3ccc4c(OCC5COCCO5)nccc4c3)n[nH]c2c1 (stereo not drawn)', 'not fulfilled'),
  ('CO[C@H](C)COc1nccc2cc(Nc3n[nH]c4nccnc34)ccc12', 'fulfilled'),
  ('c1cc2cc(Nc3n[nH]c4nccnc34)ccc2c(OCC2CCCCO2)n1 (stereo not drawn)', 'fulfilled'),
  ('c1cnc2[nH]nc(Nc3ccc4c(OCC5CCOCC5)nccc4c3)c2c1', 'fulfilled'),
  ('COCCOc1nccc2cc(Nc3n[nH]c4ncccc34)ccc12', 'not fulfilled'),
  ('c1cc2cc(Nc3n[nH]c4nccnc34)ccc2c(O[C@@H]2CCOC2)n1', 'not fulfilled'),
  ('CCOCCOc1nccc2cc(Nc3n[nH]c4ncccc34)ccc12', 'not fulfilled');

Asked: fraction unbound strictly < 0.02 for this compound? COCCOc1nccc2cc(Nc3n[nH]c4cccnc34)ccc12
Given back: not fulfilled

Asked: Same thing, different compound: c1cnc2c(Nc3ccc4c(O[C@@H]5CCCOC5)nccc4c3)n[nH]c2c1
Given back: fulfilled

---

In this section we review reported unbound brain-to-plasma partition coefficient (Kp,uu) values for a set of molecules.
Assay: Brain-plasma partition
Format: in vivo
Settings: rat, unbound brain-plasma ratio, read-out: Brain-Plasma Kp,ω
In your answer, state the number alone without any accompanying words.

# annotated cases, reported unbound brain-to-plasma partition coefficient (Kp,uu) shown
INSERT INTO results (molecule, value_reported) VALUES
  ('c1cnc2c(Nc3ccc4c(OCC5CCOCC5)nccc4c3)n[nH]c2c1 [Compound 68]', 0.12),
  ('COCCOc1nccc2cc(Nc3n[nH]c4ncccc34)ccc12 [Compound 74]', 0.1),
  ('c1cnc2c(Nc3ccc4c(O[C@H]5CCCOC5)nccc4c3)n[nH]c2c1 [Compound 61]', 0.23),
  ('c1cnc2[nH]nc(Nc3ccc4c(OCC5CCOC5)nccc4c3)c2c1 (stereo not shown) [Compound 79]', 0.16),
  ('c1cnc2[nH]nc(Nc3ccc4c(OCC5CCCCO5)nccc4c3)c2c1 (stereo not shown) [Compound 76]', 0.13),
  ('c1cc2cc(Nc3n[nH]c4nccnc34)ccc2c(OCC2COCCO2)n1 (stereo not shown) [Compound 86]', 0.11),
  ('c1cnc2c(Nc3ccc4c(OCC5CCOC5)nccc4c3)n[nH]c2c1 (stereo not shown) [Compound 71]', 0.1),
  ('CO[C@H](C)COc1nccc2cc(Nc3n[nH]c4cccnc34)ccc12 [Compound 70]', 0.48),
  ('CO[C@H](C)COc1nccc2cc(Nc3n[nH]c4ncccc34)ccc12 [Compound 78]', 0.09);

Consider the additional molecule presented here.
Asked: What does the record list as unbound brain-to-plasma partition coefficient (Kp,uu) for c1cnc2c(Nc3ccc4c(OCC5COCCO5)nccc4c3)n[nH]c2c1 (stereo not shown) [Compound 73] ?
Given back: 0.15

---

Experiment: Rat plasma fraction unbound
Assay type: in vitro ADME
Settings: read-out: Rat Fu Plasma
Measured metric: fraction unbound
Answer using only a numeral; do not append any unit.

In the examples that follow, each entry is paired with its recorded fraction unbound.
INSERT INTO results (compound, value_reported) VALUES
  ('COCCOc1nccc2cc(Nc3n[nH]c4cccnc34)ccc12', 0.039),
  ('CCOCCOc1nccc2cc(Nc3n[nH]c4ncccc34)ccc12', 0.031),
  ('c1cc2cc(Nc3n[nH]c4nccnc34)ccc2c(OCC2CCOC2)n1 (stereo not shown)', 0.019),
  ('COCCOc1nccc2cc(Nc3n[nH]c4ncccc34)ccc12', 0.041),
  ('c1cnc2c(Nc3ccc4c(OCC5CCOC5)nccc4c3)n[nH]c2c1 (stereo not shown)', 0.024),
  ('COCCOc1nccc2cc(Nc3n[nH]c4nccnc34)ccc12', 0.048);

Asked: # input compound: CO[C@H](C)COc1nccc2cc(Nc3n[nH]c4ncccc34)ccc12 ; wanted: its fraction unbound
Given back: 0.042

Asked: Check c1cnc2[nH]nc(Nc3ccc4c(OCC5CCCCO5)nccc4c3)c2c1 (stereo not shown) too.
Given back: 0.01

Asked: # iterate: c1cnc2[nH]nc(Nc3ccc4c(OCC5COCCO5)nccc4c3)c2c1 (stereo not shown)
Given back: 0.037

Asked: Queued: c1cnc2c(Nc3ccc4c(O[C@H]5CCCOC5)nccc4c3)n[nH]c2c1
Given back: 0.04

Asked: Try CO[C@H](C)COc1nccc2cc(Nc3n[nH]c4nccnc34)ccc12 next.
Given back: 0.027

Asked: Could you do the same for c1cc2cc(Nc3n[nH]c4nccnc34)ccc2c(OCC2CCOCC2)n1 , please?
Given back: 0.02

Asked: For c1cnc2c(Nc3ccc4c(OCC5CCCOC5)nccc4c3)n[nH]c2c1 (stereo not shown) then?
Given back: 0.008
